- System: 422866-222-R5-J1-PDC spheroid viability
- method: Anticancer human tumor 422866-222-R5-J1-PDC patient-derived pancreatic adenocarcinoma cell line growth inhibition [CLK]
- conditions: curve of first compound; second compound 3.16 µM; spheroids with HUVEC and MSC
pIC50: −log10 of the molar value.
Collected pIC50 values appear next to each entry.

[
  {
    "compound": "CC(CO)NC(=O)c1cc(-c2ccc(Cl)cc2)nn(-c2cnn(C)c2)c1=O (configuration not stated) + CNC(=O)c1ccc(Nc2nc(OC3CCCC3)c3c(-c4ccc5nc(C)oc5c4)c[nH]c3n2)c(OC)c1",
    "experimental target": "422866-222-R5-J1-PDC spheroid viability",
    "pIC50": "< 5.00"
  },
  {
    "compound": "CC(=O)O[C@H]1C(=O)[C@@]2(C)[C@H]([C@H](OC(=O)c3ccccc3)[C@]3(O)C[C@H](OC(=O)[C@H](O)[C@@H](NC(=O)c4ccccc4)c4ccccc4)C(C)=C1C3(C)C)[C@]1(OC(C)=O)CO[C@@H]1C[C@@H]2O + CN1CCN(c2cc(C(=O)Nc3cc4cc(-c5cnn(C)c5)ccc4cn3)ccn2)CC1",
    "experimental target": "422866-222-R5-J1-PDC spheroid viability",
    "pIC50": "> 7.50"
  }
]

---

- Tested on: 422866-222-R5-J1-PDC spheroid viability
- method: Anticancer human tumor 422866-222-R5-J1-PDC cell line growth inhibition [CLK]; active = viability on the fitted dose curve at most 10% of control; inactive = the rest;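 further: spheroids exposed to agents for seven days before readout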
- conditions: second compound 10 µM; first compound 0.316 µM; spheroids with HUVEC and MSC
Labels: active, inactive

[
  {
    "compound": "CC1COCCN1c1cc(C2(S(C)(=N)=O)CC2)nc(-c2ccnc3[nH]ccc23)n1 (stereo not given) + CNC(=O)c1ccc(Nc2nc(OC3CCCC3)c3c(-c4ccc5nc(C)oc5c4)c[nH]c3n2)c(OC)c1",
    "group": "inactive"
  },
  {
    "compound": "C=C(F)C(=O)N1CCN(c2nc(OCC3CCCN3C)nc3c2CCN(c2cccc4cccc(Cl)c24)C3)CC1CC#N (stereo not given) + CN1CCN(c2cc(C(=O)Nc3cc4cc(-c5cnn(C)c5)ccc4cn3)ccn2)CC1",
    "group": "active"
  },
  {
    "compound": "CC(=O)O[C@H]1C(=O)[C@@]2(C)[C@H]([C@H](OC(=O)c3ccccc3)[C@]3(O)C[C@H](OC(=O)[C@H](O)[C@@H](NC(=O)c4ccccc4)c4ccccc4)C(C)=C1C3(C)C)[C@]1(OC(C)=O)CO[C@@H]1C[C@@H]2O + CNC(=O)c1ccc(Nc2nc(OC3CCCC3)c3c(-c4ccc5nc(C)oc5c4)c[nH]c3n2)c(OC)c1",
    "group": "inactive"
  },
  {
    "compound": "CCc1c2c(nc3ccc(O)cc13)-c1cc3c(c(=O)n1C2)COC(=O)[C@]3(O)CC + CN1CCN(c2cc(C(=O)Nc3cc4cc(-c5cnn(C)c5)ccc4cn3)ccn2)CC1",
    "group": "active"
  },
  {
    "compound": "CC(CO)NC(=O)c1cc(-c2ccc(Cl)cc2)nn(-c2cnn(C)c2)c1=O (stereo not given) + CN1CCN(c2cc(C(=O)Nc3cc4cc(-c5cnn(C)c5)ccc4cn3)ccn2)CC1",
    "group": "active"
  }
]
